- test.method.notes: folding enthalpy; higher = less favourable; fluorescence melt of hairpins on a sequencing array, two-state fit
- measurement.conditions: sodium 0.088 M
Give 1 when the value for folding enthalpy is at least -20 kcal/mol. Give -1 when it is less.

Examples from the recorded data:
residue.string: GGCTTCCCGAAAGGGGCC (((..(((....))))))
assigned.category: 1

residue.string: GGAGACGAAAGTCGCTCC ((((((....)))..)))
assigned.category: 1

residue.string: CGCGGACTACTCCGCG ((((((....))))))
assigned.category: -1

In: Is folding enthalpy for GTCGGTGGAAACATCGGC (.((.((....)).)).) at or above -20 kcal/mol?
Out: -1

In: Entry GTTGTTGCGAAAGCAAAC (((..(((....)))))) : is its folding enthalpy no less than -20 kcal/mol?
Out: -1

In: Answer whether folding enthalpy of GCTAGCGAAAGCTCCAGC ((((((....)))..))) is greater than or equal to -20 kcal/mol.
Out: 1

In: Is folding enthalpy for GCGGTGCTCCGC ((((....)))) at or above -20 kcal/mol?
Out: 1

In: Decide: folding enthalpy of GACCGTGGAAACGCGGTC (((((.(....).))))) >= -20 kcal/mol?
Out: -1

In: Item GATCTGCGAAAGCAATC (((.(((....)))))) with folding enthalpy of -20 kcal/mol or above?
Out: 1

In: Form field: folding enthalpy at least -20 kcal/mol? Entry: GGCCGCGAAAGCGGTGCC ((((((....)))..)))
Out: 1

In: Is it the case that GCCCCGCGAAAGCGGCGC ((.((((....)))).)) has folding enthalpy reaching or exceeding -20 kcal/mol?
Out: 1

In: Is it the case that GGGATCGAAAGATCGCCC ((((((....)))..))) has folding enthalpy reaching or exceeding -20 kcal/mol?
Out: 1

In: Threshold query (folding enthalpy >= -20 kcal/mol) on GATCTGAAAGCAGATC ((((((....))))))
Out: -1

###

- test.method.notes: folding enthalpy; higher = less favourable; fluorescence melt of hairpins on a sequencing array, two-state fit
- measurement.conditions: sodium 0.088 M
I'd be grateful if you could share measured folding enthalpy for these entries.
One number for each entry, in kcal/mol.

residue.string: GTATGCGAAAGCAATAC ((((((....))).)))
folding enthalpy (kcal/mol): -20.3
//
residue.string: GCGGAGCCCCGC ((((....))))
folding enthalpy (kcal/mol): -10.7
//
residue.string: GAGTCACGAAAGTGTCTC (((.(((....))).)))
folding enthalpy (kcal/mol): -30

For every item below, please supply its folding enthalpy.
1. GTGTCTACGAAAGTACAC (((..(((....))))))
2. GAACATGGAAACGTGTTC (((((.(....).)))))
3. GATCTCAATGGAGATC ((((((....))))))
4. GCCATCACGAAAGTGGGC (((..(((....))))))
5. GGCTATGGAAACATAACC ((.((((....)))).))
6. GGGTTACGAAAGTAGCCC (((.(((....))).)))

Out:
[-13.2, -40.1, -40.6, -19.4, -25.7, -45.7]

###

I'd appreciate it if you could supply folding enthalpy values for the items below.
- test.method.notes: folding enthalpy; higher = less favourable; fluorescence melt of hairpins on a sequencing array, two-state fit
- measurement.conditions: sodium 0.088 M
Be sure to follow the number with its unit.

Known folding enthalpy results, listed for orientation:
residue.string: GGTCCAGGAAACTGAACC (((.(((....))).)))
folding enthalpy: -34.6 kcal/mol
--
residue.string: GCGATAACGAAAGTTCGC (((..(((....))))))
folding enthalpy: -28.2 kcal/mol

# ---- query sequence ----
In: Can you look up the measured folding enthalpy of GTAGCCCGAAAGGGGTAC (((.(((....))).))) for me?
Out: -32 kcal/mol

###

Consider the following sequences; for each one, report its Tm.
- test.method.notes: melting temperature; fluorescence melt of hairpins on a sequencing array, two-state fit, raised by 9.35 °C to match UV melts
- measurement.conditions: sodium 0.088 M
Write the figure, then the unit, nothing else.

Worked cases, answers included:
residue.string: GCTTGGCGAAAGCCTGGC ((..(((....)))..))
property.name: Tm
meas.value: 52.3 °C
--
residue.string: GGAGAAGGAAACTTCCCC ((.((((....)))).))
property.name: Tm
meas.value: 35.2 °C
--
residue.string: GCCAACGAAAGTTTTGGC ((((((....)))..)))
property.name: Tm
meas.value: 44.6 °C
--
residue.string: GGTAGCGGAAACGTTGCC ((.(.((....)).).))
property.name: Tm
meas.value: 39.3 °C
--
residue.string: GGCCACACGAAAGTGGCC (((..(((....))))))
property.name: Tm
meas.value: 67.5 °C

Here is another sequence to look at.
In: Any idea what its Tm is? The sequence is GCTCGTGGAAACGTGAGC ((((..(....)..))))
Out: 46.2 °C

###

- test.method.notes: folding enthalpy; higher = less favourable; fluorescence melt of hairpins on a sequencing array, two-state fit
- measurement.conditions: sodium 0.088 M
Entry flag: Fulfilled if folding enthalpy reaches -20 kcal/mol; Not fulfilled if it does not.

Please review the following examples before continuing.
residue.string: GGTACGCGAAAGCGAACC (((.(((....))).)))
assigned.category: Not fulfilled

residue.string: GCACCCGAAAGGGTCTGC ((((((....)))..)))
assigned.category: Fulfilled

residue.string: GAGGGCACGAAAGTGCTC (((..(((....))))))
assigned.category: Fulfilled

residue.string: GGCAACGAAAGTTTAGCC ((((((....)))..)))
assigned.category: Not fulfilled

In: Hello, I need to know if GTAGGACGAAAGTCGTAC (((.(((....))).))) has measured folding enthalpy not below -20 kcal/mol. Thanks!
Out: Not fulfilled

In: Threshold query (folding enthalpy >= -20 kcal/mol) on GATCTAACCTAGATC ((((((...))))))
Out: Not fulfilled

In: Please indicate if the recorded folding enthalpy for GATCGCTCGGGCGATC ((((((....)))))) meets or exceeds -20 kcal/mol.
Out: Not fulfilled

In: State whether the measured folding enthalpy reaches -20 kcal/mol, counting equality as reaching it, for GAACGCGAAAGCGTCTTC ((((((....)))..)))
Out: Not fulfilled

###

Provide the reported folding enthalpy of each item.
- test.method.notes: folding enthalpy; higher = less favourable; fluorescence melt of hairpins on a sequencing array, two-state fit
- measurement.conditions: sodium 0.088 M
Note: a bare number is incomplete; add the unit.

residue.string: GCGTAGATACGC ((((....))))
meas.value: -19.8 kcal/mol

I have 4 sequences here; please give me folding enthalpy for each one.
1. GTCTTCGCGAAAGCGGAC (((..(((....))))))
2. GATCAGGGGCTGATC ((((((...))))))
3. GATCCTTACAAGGATC ((((((....))))))
4. GTCCCGCGAAAGCGTGAC (((.(((....))).)))

Out:
1: -10.6 kcal/mol; 2: -27.4 kcal/mol; 3: -38.1 kcal/mol; 4: -23.9 kcal/mol

# batch: return folding enthalpy for each of the 2 sequences below
1. GAACGCCGAAAGGCATTC (((.(((....))).)))
2. GGCCGTCCGAAAGGAGCC (((..(((....))))))

Out:
-17.8 kcal/mol
-15.8 kcal/mol

For the 8 sequences below, give their folding enthalpy values.
1. GACTGCGAAAGCACCGTC ((((((....)))..)))
2. GCACCACGAAAGTGCTGC (((.(((....))).)))
3. GCTCTGCGAAAGCGAAGC (((..((....))..)))
4. GCCGTGCGAAAGCAGCGC ((..(((....)))..))
5. GACCACGGAAACGTAGTC (((.(((....))).)))
6. GTCCGAGGAAACCCGGAC (((((.(....).)))))
7. GCTCCGCGAAAGCTGTGC ((.(.((....)).).))
8. GTCCGCGGAAACGCAGAC (((.(((....))).)))

Out:
1. -10.7 kcal/mol
2. -25.2 kcal/mol
3. -13.6 kcal/mol
4. -13.9 kcal/mol
5. -22.6 kcal/mol
6. -40.5 kcal/mol
7. -14.9 kcal/mol
8. -21.5 kcal/mol

Need folding enthalpy for each of these sequences.
1. CGATCCGGAAACGGTCG (((.(((....))))))
2. GACAGGGCGAAAGCCGTC (((..(((....))))))
3. GGATGGCGAAAGCCCTCC (((.(((....))).)))
4. GGTAGTGGAAACACTGCC ((.((((....)))).))
5. GAATGTGAAAACATTC ((((((....))))))

Out:
1: -29.1 kcal/mol; 2: -14.1 kcal/mol; 3: -31.2 kcal/mol; 4: -38.9 kcal/mol; 5: -35.2 kcal/mol
